The reported measurements were obtained from ChEMBL document CHEMBL4513216.

- assay_text: Toxicity liver stage against HepG2, at 10uM
- Format: cell-based
- Set-up: test concentration 10 uM, cell line HepG2-A16-CD81EGFP
- experimental_context: human, HepG2-A16-CD81EGFP cells; read-out: INHIBITION
reported_endpoint: cytotoxicity at 10 µM

Answered cases to consult:
{"columns": ["compound", "reported_endpoint", "data_value"],
 "data": [
  ["O=C(c1cccs1)N1CCC(O)(CN2CCc3ccccc3C2)C1 (stereo unspecified)", "cytotoxicity at 10 µM", "1.49%"],
  ["COCCN1CCc2nc(SCc3ccc(F)cc3)[nH]c(=O)c2C1", "cytotoxicity at 10 µM", "-2.33%"],
  ["CC1=C[C@@H](CN2CCCC2)[C@H](C(C)C)C[C@H]1Cc1nnc(C)o1", "cytotoxicity at 10 µM", "2.47%"],
  ["COCC1c2nnn(CC3CC3)c2CCN1C(=O)c1ccnnc1 (stereo unspecified)", "cytotoxicity at 10 µM", "-7.44%"],
  ["CN(C)CCN1C(=O)CCC12CCCN(C(=O)C1CC=CC1)CC2 (stereo unspecified)", "cytotoxicity at 10 µM", "3.7%"],
  ["O=C1C(NCc2nnc3n2CCCC3)CCCN1c1cccc(F)c1 (stereo unspecified)", "cytotoxicity at 10 µM", "-9.68%"],
  ["COC(=O)c1cccc(CN(C)C(C)c2ccccn2)c1 (stereo unspecified)", "cytotoxicity at 10 µM", "5.85%"],
  ["Cc1cccc(CN2CCc3onc(Cn4cccc4)c3C2)n1", "cytotoxicity at 10 µM", "7.81%"],
  ["COc1ccccc1OC1CCN(c2nccc(N)n2)CC1", "cytotoxicity at 10 µM", "9.28%"],
  ["Cc1nc(C)n(CC2CCCN2CCC(=O)N2CCCCC2)n1 (stereo unspecified)", "cytotoxicity at 10 µM", "-2.67%"]
]}

Next compound, please.
Q: Query cytotoxicity at 10 µM for O=C(CCn1ccc2ccc(Br)cc21)/N=c1\[nH]nc(C2CCCO2)s1 (stereo unspecified)
Result: -9.46%
